target: Human CB1R (Cannabanoid receptor 1) (Homo sapiens (Human), UniProt P21554); assay: CB-1 in vitro cAMP (HTRF) assay; format: cell-based; settings: HEK-293 cells stably transfected with human CB1R, 250 nM Forskolin, mean where tested more than once
Sequence (P21554 whole entry): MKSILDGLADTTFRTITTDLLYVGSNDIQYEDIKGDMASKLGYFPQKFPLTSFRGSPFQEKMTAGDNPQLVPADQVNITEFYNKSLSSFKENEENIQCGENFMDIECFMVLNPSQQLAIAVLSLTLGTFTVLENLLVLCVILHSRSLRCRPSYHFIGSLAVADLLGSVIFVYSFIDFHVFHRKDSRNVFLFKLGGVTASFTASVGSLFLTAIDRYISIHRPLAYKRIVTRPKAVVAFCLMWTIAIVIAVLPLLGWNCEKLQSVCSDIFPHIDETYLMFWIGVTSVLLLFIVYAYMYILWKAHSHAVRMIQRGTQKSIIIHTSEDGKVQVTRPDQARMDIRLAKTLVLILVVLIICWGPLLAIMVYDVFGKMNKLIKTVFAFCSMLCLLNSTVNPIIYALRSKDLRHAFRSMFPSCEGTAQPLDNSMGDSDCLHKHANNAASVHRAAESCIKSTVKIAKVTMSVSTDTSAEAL
Lab note: compare EC50 with 300 nM, writing met if less and not met if equal or more.

Solved entries (count: 3):
O=C(O)c1csc(S(=O)(=O)N2CCC(Nc3cnnc4ccc(C(c5ccc(Cl)cc5)c5ccc(Cl)cc5)cc34)CC2)c1 [Compound 32]	met
COc1ccc(CNc2cnnc3ccc(C(c4ccc(Cl)cc4)c4ccc(Cl)cc4)cc23)cc1 [Compound 20]	met
Clc1ccc(C(c2ccc(Cl)cc2)c2ccc3nncc(N4CCC(Nc5ccccc5)CC4)c3c2)cc1 [Compound 29]	met

Is EC50 of COc1ccc(C(c2ccc(Cl)cc2)c2ccc3nncc(NC4CCN(S(=O)(=O)C(F)(F)F)CC4)c3c2)cc1 (stereo not shown) [Compound 35] strictly below 300 nM?
met

Lab note: confirm whether the reported EC50 for this molecule is below 300 nM, equality not counting. molecule: FC(F)(F)c1ccc(CNc2cnnc3ccc(C(c4ccc(Cl)cc4)c4ccc(Cl)cc4)cc23)cc1 [Compound 9]
met

# strict comparison: is reported EC50 < 300 nM? input = O=C(O)c1cccc(CCNc2cnnc3ccc(C(c4ccc(Cl)cc4)c4ccc(Cl)cc4)cc23)c1 [Compound 38]
not met

Find out if reported EC50 for Clc1ccc(C(c2ccc(Cl)cc2)c2ccc3nncc(NCCc4ccccc4)c3c2)cc1 [Compound 25] is less than 300 nM
met

Dear reviewer, please state whether Oc1ccc(CNc2cnnc3ccc(C(c4ccc(Cl)cc4)c4ccc(Cl)cc4)cc23)cc1 [Compound 21] has EC50 strictly beneath 300 nM.
not met

Below 300 nM on EC50? Entry Clc1ccc(C(c2ccc(Cl)cc2)c2ccc3nncc(NC4CCN(Cc5ccccc5)C4)c3c2)cc1 (stereo not shown) [Compound 28]
not met

hey, is EC50 for O=S(=O)(N1CCC(Nc2cnnc3ccc(C(c4ccc(F)cc4)c4ccc(Cl)cc4)cc23)CC1)C(F)(F)F (stereo not shown) [Compound 34] lower than 300 nM or not?
met

In plain terms, does O=C(O)c1ccc(CN2CCC(Nc3cnnc4ccc(C(c5ccc(Cl)cc5)c5ccc(Cl)cc5)cc34)CC2)cc1 [Compound 13] come in under 300 nM for EC50?
not met

# TODO verify EC50 < 300 nM strictly for this molecule: O=S(=O)(N1CCN(c2cnnc3ccc(C(c4ccc(Cl)cc4)c4ccc(Cl)cc4)cc23)CC1)C(F)(F)F [Compound 24]
met

Report whether reported EC50 is lower than 300 nM (strictly) for O=S(=O)(c1ccccc1)N1CCC(Nc2cnnc3ccc(C(c4ccc(Cl)cc4)c4ccc(Cl)cc4)cc23)C1 (stereo not shown) [Compound 27]
met

====

target: Human CB1R (Cannabanoid receptor 1) (Homo sapiens (Human)); assay: CB-1 in vitro cAMP (HTRF) assay; type: cell-based; conditions: HEK-293 cells stably transfected with human CB1R, 250 nM Forskolin, mean where tested more than once
READOUT_LABEL: EC50

Previously resolved entries follow.
O=S(=O)(N1CCC(Nc2cnnc3ccc(C(O)(c4ccc(Cl)cc4)c4ccc(Cl)cc4)cc23)CC1)C(F)(F)F	0.455 µM
O=C(O)c1ccc(CCN2CCC(Nc3cnnc4ccc(C(c5ccc(Cl)cc5)c5ccc(Cl)cc5)cc34)CC2)cc1	6.64 µM

Would you mind telling me what EC50 value was observed for O=C(O)c1cccc(CCN2CCC(Nc3cnnc4ccc(C(c5ccc(Cl)cc5)c5ccc(Cl)cc5)cc34)CC2)c1 ?
5.09 µM

Every entry's value here was drawn from patent US9732061B2.
